Target: T1, HAAH catalytic domain (human, UniProt Q12797)
T1 sequence: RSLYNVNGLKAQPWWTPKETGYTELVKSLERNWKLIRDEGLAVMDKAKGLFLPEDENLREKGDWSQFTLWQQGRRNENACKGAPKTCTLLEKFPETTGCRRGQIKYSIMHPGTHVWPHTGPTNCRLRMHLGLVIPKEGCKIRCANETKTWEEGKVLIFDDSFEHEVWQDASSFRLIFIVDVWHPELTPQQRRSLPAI
Experiment: ELISA on plates coated with HAAH catalytic domain
reported.metric: % Binding (%)

binder="SNS622-DM1C2 (antibody, V domains shown, MC-DM1 on cysteine thiols of reduced disulfide bonds, positions not given; reaction DAR 10:1, pH 8, final DAR 5.81; MC-DM1 on cysteine thiols of reduced disulfide bonds, positions not given) VH: QVQLQQSGPGLVKPSQTLSLTCAISGDSVSSNSAAWNWIRQSPSRGLEWLGRTYYRSKWYNDYAVSVKSRITINPDTSKNQFSLQLNSVTPEDTAVYYCARTGYSSSWVVNFDYWGQGTLVTVSS VL: QPVLTQSPSASGTPGQRVTISCSGSSSNIGSNYVYWYQQLPGTAPKLLIYKNNQRPSGVPDRFSGSKSGTAASLAISGLQSEDEADYYCAAWDDSLRGYVFGTGTKLTVLG" reported_metric="% Binding" units_label=% measured_value=80.5
